Assay: Determination of maximum absorption wavelength (λmax) after UV irradiation in solution
Format: physicochemical
Settings: chloroform; irradiated with ultraviolet light with a maximum wavelength of 350 nanometers
Method: Each of the photochromic compounds (compound P) formed in step 2 of Examples 1-13 and Comparative Example 1 were independently dissolved in separate containers of chloroform. […] Each of the chloroform-dissolved photochromic compounds of Examples 1-13 and Comparative Examples 1-2 were then irradiated with ultraviolet light with a maximum wavelength of 350 nanometers and were measured for maximum absorption wavelength) λmax. The fade time, T1/2 was then determined for each of the irradiated compounds. […]
reported.endpoint: λmax (Nanometers)

[
  {
    "compound": "COc1ccc2c3c(ccc2c1)OC1(C=C3)CCCc2cc(OC)c(OC)cc21 (centres unmarked)",
    "data.value": 445
  },
  {
    "compound": "COc1ccc2c3c(ccc2c1)OC1(C=C3)CCCc2ccccc21 (centres unmarked)",
    "data.value": 474
  },
  {
    "compound": "COc1ccc2c3c(ccc2c1)OC(c1ccccc1)(c1ccccc1)C=C3 [Comparative Example 1, reference compound]",
    "data.value": 472
  },
  {
    "compound": "COc1ccc2c3c(ccc2c1)OC1(C=C3)c2ccccc2CC(c2ccccc2)C1c1ccccc1 (centres unmarked)",
    "data.value": 476
  },
  {
    "compound": "COc1ccc2c3c(ccc2c1)OC1(C=C3)C(c2ccccc2)=C(c2ccccc2)c2ccccc21 (centres unmarked)",
    "data.value": 512
  },
  {
    "compound": "COc1ccc2c3c(ccc2c1)OC1(C=C3)c2ccccc2CC1C (centres unmarked)",
    "data.value": 478
  },
  {
    "compound": "C1=CC2(Oc3ccc4ccccc4c31)C(c1ccccc1)=C(c1ccccc1)c1ccccc12 (centres unmarked)",
    "data.value": 454
  },
  {
    "compound": "COc1ccc2c3c(ccc2c1)OC1(C=C3)c2ccccc2-c2ccccc21",
    "data.value": 492
  }
]

---

Experiment: Determination of maximum absorption wavelength (λmax) after UV irradiation in solution
Type: physicochemical
Settings: cyclohexane
reported.endpoint: λmax (Nanometers)

[
  {
    "molecule": "COc1ccc2c3c(ccc2c1)OC1(C=C3)CCCc2ccccc21 (centres unmarked)",
    "λmax (Nanometers)": 465
  },
  {
    "molecule": "COc1ccc2c3c(ccc2c1)OC(c1ccccc1)(c1ccccc1)C=C3 [Comparative Example 1, reference compound]",
    "λmax (Nanometers)": 451
  },
  {
    "molecule": "C1=CC2(Oc3ccc4ccccc4c31)c1ccccc1-c1ccccc12",
    "λmax (Nanometers)": 438
  },
  {
    "molecule": "COc1ccc2c3c(ccc2c1)OC1(C=C3)c2ccccc2-c2ccccc21",
    "λmax (Nanometers)": 478
  },
  {
    "molecule": "C1=CC(c2ccccc2)(c2ccccc2)Oc2ccc3ccccc3c21 [Comparative Example 2, 3,3-diphenyl-naphtho-3H[2,1-b]pyran, reference compound]",
    "λmax (Nanometers)": 415
  }
]

Hey, just so you know, these numbers are from patent US5705102A.
